# System: SF-539
# ASSAY_PROTOCOL: NCI tumour cell line growth inhibition, 48 h
Active and inactive are the calls of the source. No stated cut-off is given here; in the data, active = GI50 up to about 1.1 µM and inactive = higher.
EXPERIMENTAL_READOUT: GI50

• Cc1coc2c1CC1OC1(C)CCC1OC1(C)C2 (stereo unspecified) = > 100 µM (inactive)
• CCOC(=O)c1nc2ccccc2nc1NCc1ccc(Cl)cc1Cl = > 100 µM (inactive)
• C/C=C(/C)C(=O)O[C@H]1C[C@@H]2[C@@H](O)c3occ(C)c3C[C@]2(C)[C@@H](C)C1 = 17.5 µM (inactive)
• COc1ccc(C(=O)O/N=C2/CCC/C2=C\c2ccccc2)cc1 = > 59.3 µM (inactive)
• Cc1nc2c(n1CCCl)C(=O)c1ccccc1C2=O = 31.4 µM (inactive)
• N/C(=N\O)N/N=C\c1c2ccccc2c(Cl)c2ccccc12 = 9.62 µM (inactive)
• O=C(O)/C(Cl)=C(\Cl)C(=O)NC1C2CC3CC(C2)CC1C3 (stereo unspecified) = > 100 µM (inactive)
• CC1CCCc2c(CC3CC(=O)NC(=O)C3)nc(N)nc21 (stereo unspecified) = > 100 µM (inactive)
• CCSc1nc(-c2ccc(OC)cc2)c(C#N)c(=O)n1C1OCC(OC(C)=O)C(OC(C)=O)C1OC(C)=O (stereo unspecified) = > 100 µM (inactive)
• O=C1CC2(CCC(O)(c3ccco3)C(C(=O)c3ccco3)C2)C(=O)c2ccccc2N1 (stereo unspecified) = > 100 µM (inactive)
• CCOc1cc(NC(C)=O)ccc1C(=O)NN1C(=O)/C(=C/c2ccco2)N=C1c1ccccc1 = > 100 µM (inactive)
